The entries below come with measured MIC values attached.
System: Candida albicans
ASSAY_DETAILS: Antifungal activity against Candida albicans ATCC 90028
Type: functional
Form entry: value (µg/mL) — number only.

| MOLECULE | PROPERTY | VALUE |
| --- | --- | --- |
| N=C(NC1CCCC1)c1ccc2[nH]c(-c3ccc(Oc4ccc(-c5nc6cc(C(=N)NC7CCCC7)ccc6[nH]5)cc4)cc3)nc2c1 | MIC | 2 |
| CCC(CC)NC(=N)c1ccc2[nH]c(-c3ccc(Oc4ccc(-c5nc6cc(C(=N)NC(CC)CC)ccc6[nH]5)cc4)cc3)nc2c1 | MIC | 4 |

Looking up CC(C)NC(=N)c1ccc2[nH]c(-c3ccc(Oc4ccc(-c5nc6cc(C(=N)NC(C)C)ccc6[nH]5)nc4)cc3)nc2c1 , I see its MIC listed as 4

Input N=C(c1ccc2[nH]c(-c3ccc(Oc4ccc(-c5nc6cc(C(=N)N7CCCC7)ccc6[nH]5)cc4)cc3)nc2c1)N1CCCC1 . Output MIC: 4

Looking up COc1cc(Oc2ccc(-c3nc4cc(C(=N)NC(C)C)ccc4[nH]3)c(Cl)c2)ccc1-c1nc2cc(C(=N)NC(C)C)ccc2[nH]1 , I found its MIC recorded as 4

The recorded MIC for entry CCC(C)NC(=N)c1ccc2[nH]c(-c3ccc(Oc4ccc(-c5nc6cc(C(=N)NC(C)CC)ccc6[nH]5)cc4)cc3)nc2c1 (centres undefined) equals 2

Entry COc1cc(Oc2ccc(-c3nc4cc(C(=N)NC(C)C)ccc4[nH]3)cc2)ccc1-c1nc2cc(C(=N)NC(C)C)ccc2[nH]1 , MIC reported as 2

Measured MIC of N=C(c1ccc2[nH]c(-c3ccc(Oc4ccc(-c5nc6cc(C(=N)N7CCCCC7)ccc6[nH]5)cc4)cc3)nc2c1)N1CCCCC1 : 8

All figures here come from ChEMBL document CHEMBL1153072.
